- Test System: Su(dx) WW3-4 preloaded (saturated) with WBP1 peptide (Drosophila | , UniProt Q9Y0H4 474-554)
- Sequence (Q9Y0H4 474-554): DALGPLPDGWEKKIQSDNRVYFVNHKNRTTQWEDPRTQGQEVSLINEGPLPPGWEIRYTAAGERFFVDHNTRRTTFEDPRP
- Experiment Notes: ITC

{"Binder": "AKQPPSYEDCIK [Notch PY motif peptide N1]", "Kd / µM": 42}

Hey, just so you know, these numbers are from paper PMC4244684.
